Data provenance is ChEMBL document CHEMBL1133072.

Please respond with reported MIC for every item in the list.
# System: Staphylococcus aureus
# testProtocol: Minimum inhibitory concentration against Staphylococcus aureus 503 was determined by agar dilution method using Mueller-Hinton
# Type: functional
Numbers only, in µg/mL.

{"columns": ["molecule", "measuredNumber"],
 "data": [
  ["C[C@@H](O)[C@H]1C(=O)N2C(C(=O)O)=C(S[C@@H]3CN[C@H](/C=C/c4cc(CO)no4)C3)[C@H](C)[C@H]12", 0.025],
  ["C[C@@H](O)[C@H]1C(=O)N2C(C(=O)O)=C(SCCNC=N)C[C@H]12 [IMIPENEM ANHYDROUS]", 0.013],
  ["COC(=O)c1cc(/C=C/[C@@H]2C[C@H](SC3=C(C(=O)O)N4C(=O)[C@H]([C@@H](C)O)[C@H]4[C@H]3C)CN2)on1", 0.025]
]}

Give me MIC for each of these molecules, listed below.
1. C[C@@H](O)[C@H]1C(=O)N2C(C(=O)O)=C(S[C@@H]3CN[C@H](/C=C\c4cnoc4)C3)[C@H](C)[C@H]12
2. C[C@@H](O)[C@H]1C(=O)N2C(C(=O)O)=C(S[C@@H]3CN[C@H](/C=C/c4cc(Cl)no4)C3)[C@H](C)[C@H]12
3. C[C@@H](O)[C@H]1C(=O)N2C(C(=O)O)=C(S[C@@H]3CN[C@H](C(=O)N(C)C)C3)[C@H](C)[C@H]12
4. C[C@@H](O)[C@H]1C(=O)N2C(C(=O)O)=C(S[C@@H]3CN[C@H](/C=C\c4cc(CO)no4)C3)[C@H](C)[C@H]12

[0.013, 0.013, 0.098, 0.049]
